# Tested on: Malme-3M
# assay method text: Growth inhibition of human Malme-3M cells at 10 uM incubated for 48 hrs by sulforhodamine B assay relative to control
# Format: functional
# assay conditions: read-out: GI
metric: inhibition of growth at 10 µM (%)

{"columns": ["query smiles", "experimental value"],
 "data": [
  ["COc1cc2nc(-c3ccsc3)cc(OCCCN3CCC(O)CC3)c2cc1OC", 32],
  ["COc1cc2nc(-c3ccc(Cl)cc3)cc(OCCCN3CCOCC3)c2cc1OC", 62],
  ["COc1cc2nc(-c3ccc(C(F)(F)F)cc3)cc(OCCN3CCOCC3)c2cc1OC", 13],
  ["COc1cc2nc(-c3ccc(Cl)cc3)cc(OCCCN3CCCC3)c2cc1OC", 62],
  ["COc1cc2nc(-c3ccc(Cl)cc3)cc(OCCCN3CCC(O)CC3)c2cc1OC", 62],
  ["COc1cc2nc(-c3ccc(C(F)(F)F)cc3)cc(OCCN3CCCC3)c2cc1OC", 13],
  ["COc1cc2nc(-c3ccc(Cl)cc3)cc(OCCN3CCCC3)c2cc1OC", 3],
  ["COc1cc2nc(-c3ccc(Cl)cc3)cc(OCCN3CCC(O)CC3)c2cc1OC", 3],
  ["COc1cc2nc(-c3ccco3)cc(OCCCN3CCC(O)CC3)c2cc1OC", 46],
  ["COc1cc2nc(-c3ccc(C(F)(F)F)cc3)cc(OCCN3CCCCC3)c2cc1OC", 13],
  ["COc1cc2nc(-c3ccc(Cl)cc3)cc(OCCN3CCCCC3)c2cc1OC", 3],
  ["COc1cc2nc(-c3ccc(Cl)cc3)cc(OCCN3CCOCC3)c2cc1OC", 3],
  ["COc1cc2nc(-c3ccc(C(F)(F)F)cc3)cc(OCCN3CCC(O)CC3)c2cc1OC", 13],
  ["COc1cc2nc(-c3cccs3)cc(OCCCN3CCC(O)CC3)c2cc1OC", 20],
  ["COc1cc2nc(-c3ccc(Cl)cc3)cc(OCCCN3CCCCC3)c2cc1OC", 62]
]}
